We begin with a simple list: items and their reported relative viability.
# System: HCC-827
# method_summary: relative viability (nuclei count vs DMSO), 5 days (fraction); higher = more cells survive
# condition_label: first compound 2.53 µM
assay_endpoint: relative viability

* Cc1cnc(-c2cnc(NCCNc3ccc(C#N)cn3)nc2-c2ccc(Cl)cc2Cl)[nH]1 + Cc1nc(NC(=O)N2CCC[C@H]2C(N)=O)sc1-c1ccnc(C(C)(C)C(F)(F)F)c1 [Alpelisib] (partner 2 µM) | 0.929
* O=c1[nH]c2ccccc2n1C1CCN(CCCC(c2ccc(F)cc2)c2ccc(F)cc2)CC1 [Pimozide] + Cc1nc(NC(=O)N2CCC[C@H]2C(N)=O)sc1-c1ccnc(C(C)(C)C(F)(F)F)c1 [Alpelisib] (partner 2 µM) | 0.95
* Cc1cnc(-c2cnc(NCCNc3ccc(C#N)cn3)nc2-c2ccc(Cl)cc2Cl)[nH]1 + Nc1ncn([C@H]2C[C@H](O)[C@@H](CO)O2)c(=O)n1 [Decitabine] (partner 2 µM) | 0.287
* Cc1cnc(-c2cnc(NCCNc3ccc(C#N)cn3)nc2-c2ccc(Cl)cc2Cl)[nH]1 + Cc1cc(Nc2cc(N3CCN(C)CC3)nc(Sc3ccc(NC(=O)C4CC4)cc3)n2)n[nH]1 [Tozasertib] (partner 0.1 µM) | 0.407
* O=c1[nH]c2ccccc2n1C1CCN(CCCC(c2ccc(F)cc2)c2ccc(F)cc2)CC1 [Pimozide] + N=C(N)NC(=N)NCCc1ccccc1 [Phenformin] (partner 250 µM) | 0.443
* Cc1cnc(-c2cnc(NCCNc3ccc(C#N)cn3)nc2-c2ccc(Cl)cc2Cl)[nH]1 + C[C@]1(O)C[C@@H](c2nc(-c3ccc4ccc(-c5ccccc5)nc4c3)c3c(N)nccn32)C1 [Linsitinib] (partner 1 µM) | 0.955
* O=c1[nH]c2ccccc2n1C1CCN(CCCC(c2ccc(F)cc2)c2ccc(F)cc2)CC1 [Pimozide] + CC(C)C[C@H](NC(=O)[C@H](Cc1ccccc1)NC(=O)c1cnccn1)B(O)O [Bortezomib] (partner 0.002 µM) | 0.982
* Cc1cnc(-c2cnc(NCCNc3ccc(C#N)cn3)nc2-c2ccc(Cl)cc2Cl)[nH]1 + CC(=O)c1c(C)c2cnc(Nc3ccc(N4CCNCC4)cn3)nc2n(C2CCCC2)c1=O [Palbociclib] (partner 0.5 µM) | 0.387

* * *

# Test system: NCI-H1734
# method_summary: relative viability (nuclei count vs DMSO), 5 days (fraction); higher = more cells survive
# condition_label: first compound 0.05 µM
assay_endpoint: relative viability

• COc1cc2nccc(Oc3ccc(NC(=O)Nc4cc(C)on4)c(Cl)c3)c2cc1OC [Tivozanib] + NC(=O)Nc1cc(-c2cccc(F)c2)sc1C(=O)N[C@H]1CCCNC1 [AZD7762] (partner 0.2 µM) = 0.523
• Nc1ccn([C@@H]2O[C@H](CO)[C@@H](O)[C@@H]2O)c(=O)n1 [Cytarabine] + Cc1cc(Nc2cc(N3CCN(C)CC3)nc(Sc3ccc(NC(=O)C4CC4)cc3)n2)n[nH]1 [Tozasertib] (partner 0.1 µM) = 0.178
• Nc1ccn([C@@H]2O[C@H](CO)[C@@H](O)[C@@H]2O)c(=O)n1 [Cytarabine] + Nc1nc2[nH]cc(CCc3ccc(C(=O)N[C@@H](CCC(=O)O)C(=O)O)cc3)c2c(=O)[nH]1 [Pemetrexed] (partner 0.2 µM) = 0.193
• Nc1ccn([C@@H]2O[C@H](CO)[C@@H](O)[C@@H]2O)c(=O)n1 [Cytarabine] + CC1(C)CCC(c2ccc(Cl)cc2)=C(CN2CCN(c3ccc(C(=O)NS(=O)(=O)c4ccc(N[C@H](CCN5CCOCC5)CSc5ccccc5)c(S(=O)(=O)C(F)(F)F)c4)cc3)CC2)C1 [Navitoclax] (partner 0.5 µM) = 0.197
• COc1cc2nccc(Oc3ccc(NC(=O)Nc4cc(C)on4)c(Cl)c3)c2cc1OC [Tivozanib] + CS(=O)(=O)CCNCc1ccc(-c2ccc3ncnc(Nc4ccc(OCc5cccc(F)c5)c(Cl)c4)c3c2)o1 [Lapatinib] (partner 2 µM) = 1.17
• COc1cc2nccc(Oc3ccc(NC(=O)Nc4cc(C)on4)c(Cl)c3)c2cc1OC [Tivozanib] + Cc1cc(Nc2cc(N3CCN(C)CC3)nc(Sc3ccc(NC(=O)C4CC4)cc3)n2)n[nH]1 [Tozasertib] (partner 0.1 µM) = 0.26
• COc1cc2nccc(Oc3ccc(NC(=O)Nc4cc(C)on4)c(Cl)c3)c2cc1OC [Tivozanib] + CC1(C)CCC(c2ccc(Cl)cc2)=C(CN2CCN(c3ccc(C(=O)NS(=O)(=O)c4ccc(N[C@H](CCN5CCOCC5)CSc5ccccc5)c(S(=O)(=O)C(F)(F)F)c4)cc3)CC2)C1 [Navitoclax] (partner 0.5 µM) = 0.823
• Nc1ccn([C@@H]2O[C@H](CO)[C@@H](O)[C@@H]2O)c(=O)n1 [Cytarabine] + COc1cc2c(Oc3ccc(NC(=O)C4(C(=O)Nc5ccc(F)cc5)CC4)cc3F)ccnc2cc1OCCCN1CCOCC1 [Foretinib] (partner 0.25 µM) = 0.205
• Nc1ccn([C@@H]2O[C@H](CO)[C@@H](O)[C@@H]2O)c(=O)n1 [Cytarabine] + C[C@]1(O)C[C@@H](c2nc(-c3ccc4ccc(-c5ccccc5)nc4c3)c3c(N)nccn32)C1 [Linsitinib] (partner 1 µM) = 0.257
• COc1cc2nccc(Oc3ccc(NC(=O)Nc4cc(C)on4)c(Cl)c3)c2cc1OC [Tivozanib] + C[C@]1(O)C[C@@H](c2nc(-c3ccc4ccc(-c5ccccc5)nc4c3)c3c(N)nccn32)C1 [Linsitinib] (partner 1 µM) = 1.03
• COc1cc2nccc(Oc3ccc(NC(=O)Nc4cc(C)on4)c(Cl)c3)c2cc1OC [Tivozanib] + O=C(CCCCCCC(=O)Nc1ccccc1)NO [Vorinostat] (partner 1 µM) = 0.813
• COc1cc2nccc(Oc3ccc(NC(=O)Nc4cc(C)on4)c(Cl)c3)c2cc1OC [Tivozanib] + Cc1nc(Nc2ncc(C(=O)Nc3c(C)cccc3Cl)s2)cc(N2CCN(CCO)CC2)n1 [Dasatinib] (partner 0.075 µM) = 0.51
• COc1cc2nccc(Oc3ccc(NC(=O)Nc4cc(C)on4)c(Cl)c3)c2cc1OC [Tivozanib] + C[C@@H](Oc1cc(-c2cnn(C3CCNCC3)c2)cnc1N)c1c(Cl)ccc(F)c1Cl [Crizotinib] (partner 1 µM) = 0.682
• Nc1ccn([C@@H]2O[C@H](CO)[C@@H](O)[C@@H]2O)c(=O)n1 [Cytarabine] + Cc1nc(Nc2ncc(C(=O)Nc3c(C)cccc3Cl)s2)cc(N2CCN(CCO)CC2)n1 [Dasatinib] (partner 0.075 µM) = 0.218
